system: Zika virus NS2B-NS3 protease (unlinked complex); test: Primary screen GU Rhodamine qHTS for Zika virus inhibitors: Unlinked NS2B-NS3 protease assay (AID 1347159); conditions: Recombinant ZIKV NS2B-NS3 protease, Rhodamine110 substrate fluorescence; series mostly up to 107 µM; note: nearly all actives have a fitted effect of over 60% in size
Results filed as inconclusive are left out. The source made the active and inactive calls. Calls come from the whole dose curve; as a rule, active = well fitted inhibition curve with a large enough effect; inconclusive = small, poorly fitted or top-dose-only effect; inactive = no such curve, though single readings can be large or run the other way.
Outcomes: active, inactive

compound	group
CC1=C[C@H]2O[C@@H]3[C@H](O)[C@@H](O)[C@](C)([C@@]2(CO)C[C@@H]1O)[C@]31CO1	inactive
CC(C)[C@H](NC(=O)c1nn(Cc2ccc(F)cc2)c2ccccc12)C(N)=O	inactive
C/C=C(\C)C(O)C(C)/C=C(C)/C=C/C/C(C)=C/Cc1nc(OC)c(OC)c(O[C@@H]2O[C@@H](C)[C@H](O)[C@@H](O)[C@H]2O)c1C (stereo partly drawn)	inactive
CO[C@@H]1[C@H](O)[C@@H](O[C@@H]2C[C@H]3CC[C@@H]4C(CC[C@]5(C)[C@@H](C6=CC(=O)OC6)CC[C@]45O)[C@@]3(C)[C@H](O)C2)O[C@H](C)[C@@H]1O (stereo partly drawn)	inactive
CN1CCc2cc3c(cc2C1C1OC(=O)c2c1ccc1c2OCO1)OCO3 (stereo not drawn)	inactive
O=C(N[C@H]1CN2CCC1CC2)c1cc2cccc(Cl)c2s1	inactive
COc1ccc2c3c([nH]c2c1)C(C=C(C)C)N1C(=O)C2CCCN2C(=O)C1C3 (stereo not drawn)	inactive
CC/C=C/C=C/C1(C)OC(OC)=C(C(=O)C2C(C)C(=O)c3cc(OC)c(O)c(O)c3C2(C)O)C1=O (stereo not drawn)	active

----------
experiment: qHTS for Inhibitors of the Functional Ribonucleoprotein Complex (vRNP) of Lymphocytic Choriomeningitis Arenaviruses (LCMV): Viability assay - alamar blue signal for LCMV Primary Screen (AID 1347085); conditions: alamar blue viability counter-screen, LCMV vRNP screen cells; series mostly up to 57.5 µM; note: nearly all actives have a fitted effect of over 80% in size
Records with an inconclusive call do not appear. Active and inactive are the calls of the source. Calls follow the shape of the full dose curve; tested in HEK293 reporter line.
Labels: active, inactive

                                    compound     group
 0  C[C@]12CCC(=O)C[C@@H]1CC[C@@H]1[C@@H]2CC[C@]2(C)C=CC[C@@H]12  inactive
 1                   CC1=CC[C@H](CC=O)C1(C)C  inactive
 2  CC1=C2C(=O)C3C(CC=C4CC(O)CCC43C)C2CCC12OC1CC(C)CNC1C2C (stereo unspecified)  inactive
 3                        CC1=CCC(=C(C)C)CC1  inactive
 4                     CCCCCCCCCCOS(=O)(=O)O  inactive
 5  CC(=O)OC1CCC2(C)C(COc3ccc4ccc(=O)oc4c3)C(C)(O)CCC2C1(C)C (stereo unspecified)  inactive
 6        CN(CC=CC#CC(C)(C)C)Cc1cccc2ccccc12  inactive
 7  N#Cc1c(C2CCNCC2)cc(-c2c(O)cccc2OCC2CC2)nc1N    active
 8  COc1cccc2c(NCc3ccccc3)nc(-n3c(N)nc4ccccc43)nc12  inactive
 9  OC[C@H]1O[C@@H](n2cnc3c(NC4CCCCC4)ncnc32)[C@H](O)[C@@H]1O  inactive
10  CCC(=C(c1ccc(O)cc1)c1ccc(OCCNC)cc1)c1ccccc1    active
